procedure_details: Inhibition of Phosphodiesterase 5
measured_parameter: pIC50
pIC50 here is simply -log10 of the concentration when that concentration is written in mol/L.

Worked set:
>>> observed_value("CCOC(=O)c1sc(Nc2nc(NCc3ccc(OC)c(OC)c3)c3c(ncn3CC)n2)nc1C")
6.57
>>> observed_value("CCOC(=O)c1sc(Nc2nc(NC)c3ncn(Cc4ccc(S(C)(=O)=O)cc4)c3n2)nc1C")
6.14
>>> observed_value("CCCc1nn(C)c2c(=O)[nH]c(-c3cc(S(=O)(=O)N4CCN(C)CC4)ccc3OCC)nc12")
7.96

// next item, pIC50 requested
Would you mind telling me what pIC50 value was observed for CCOC(=O)c1sc(Nc2nc(NCc3ccc(S(N)(=O)=O)cc3)c3c(ncn3CC)n2)nc1C ?
7.96

----------
procedure_details: Relative binding to Phosphodiesterase 5 and Phosphodiesterase 7, ratio of IC50
Each entry below lists one item and its recorded Ratio value.
Number, no unit, nothing else.

>>> observed_value("CCOC(=O)c1sc(Nc2nc(N3CCNCC3)c3c(n2)N(Cc2cccnc2)CCC3)nc1C")
13
>>> observed_value("CCOC(=O)c1sc(Nc2nc(N3CCNCC3)c3c(n2)N(Cc2cc(OC)c(OC)c(OC)c2)CC3)nc1C")
362
>>> observed_value("CCOC(=O)c1sc(Nc2nc(N3CCNCC3)c3c(n2)N(Cc2cc(OC)c(OC)c(OC)c2)CCC3)nc1C")
182
>>> observed_value("CCOC(=O)c1sc(Nc2nc(N3CCNCC3)c3c(n2)N(Cc2ccc(S(C)(=O)=O)cc2)CC3)nc1C")
1
>>> observed_value("CCOC(=O)c1sc(Nc2nc(N3CCN(C)CC3)c3c(n2)N(Cc2cc(OC)c(OC)c(OC)c2)CC3)nc1C")
104
>>> observed_value("CCOC(=O)c1sc(Nc2nc(N3CCN(O)CC3)c3c(n2)N(Cc2ccccn2)CC3)nc1C")
7
>>> observed_value("CCOC(=O)c1sc(Nc2nc(N3CCN(C)CC3)c3c(n2)N(Cc2cc(OC)c(OC)c(OC)c2)CCO3)nc1C")
64
>>> observed_value("CCOC(=O)c1sc(Nc2nc(N3CCNCC3)c3c(n2)N(Cc2cc(OC)c(OC)c(OC)c2)CCO3)nc1C")
1240

Would you mind telling me what Ratio value was observed for CCOC(=O)c1sc(Nc2nc(N3CCNCC3)c3c(n2)N(Cc2ccc(S(C)(=O)=O)cc2)CCC3)nc1C ?
8

Would you mind telling me what Ratio value was observed for CCOC(=O)c1sc(Nc2nc(NCc3ccc(OC)c(OC)c3)c3c(ncn3CC)n2)nc1C ?
1.8

Would you mind telling me what Ratio value was observed for CCOC(=O)c1sc(Nc2nc(N3CCN(C)CC3)c3c(n2)N(Cc2cc(OC)c(OC)c(OC)c2)CCC3)nc1C ?
9

Would you mind telling me what Ratio value was observed for CCOC(=O)c1sc(Nc2nc(NC)c3ncn(Cc4ccc(S(C)(=O)=O)cc4)c3n2)nc1C ?
8

----------
procedure_details: Relative binding to Phosphodiesterase 2 and Phosphodiesterase 7, ratio of IC50
measured_parameter: Ratio
Number, no unit, nothing else.

>>> observed_value("CCOC(=O)c1sc(Nc2nc(N3CCNCC3)c3c(n2)N(Cc2cccnc2)CCC3)nc1C")
33
>>> observed_value("CCOC(=O)c1sc(Nc2nc(N3CCNCC3)c3c(n2)N(Cc2ccc(S(C)(=O)=O)cc2)CCC3)nc1C")
27
>>> observed_value("CCOC(=O)c1sc(Nc2nc(N3CCNCC3)c3c(n2)N(Cc2cc(OC)c(OC)c(OC)c2)CCC3)nc1C")
114

Would you mind telling me what Ratio value was observed for CCOC(=O)c1sc(Nc2nc(NCc3ccc(OC)c(OC)c3)c3c(ncn3CC)n2)nc1C ?
11

Recorded values, source ChEMBL document CHEMBL1143499.
